All figures here come from paper PMC11098746.

- system under test: Circumsporozoite protein (CSP) (Plasmodium falciparum (isolate 3D7), UniProt Q7K740)
- Sequence (Q7K740 19-374): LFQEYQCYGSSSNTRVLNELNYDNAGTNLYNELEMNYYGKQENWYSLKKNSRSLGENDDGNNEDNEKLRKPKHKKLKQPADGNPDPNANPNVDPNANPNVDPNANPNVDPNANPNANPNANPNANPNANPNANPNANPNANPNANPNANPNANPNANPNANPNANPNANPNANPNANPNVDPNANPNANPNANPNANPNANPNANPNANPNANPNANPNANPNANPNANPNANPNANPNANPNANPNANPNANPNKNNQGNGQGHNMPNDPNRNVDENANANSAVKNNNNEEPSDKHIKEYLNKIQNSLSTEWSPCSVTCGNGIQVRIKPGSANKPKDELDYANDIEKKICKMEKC
- protocol: AVEXIS screen signal:noise (double-corrected)
# binding score >= 1 gives satisfied, anything below gives not satisfied

(Q) Check this binder for binding score at or above 1: ADP284 (protein, bait human Fc-tagged dimer) SNAYSSPSVVLASYNHDGTRNILDDFREAYFWLRQNTDEHARVMSWWDYGYQIAGMANRTTLVDNNTWNNSHIALVGKAMSSNETAAYKIMRTLDVDYVLVIFGGVIGYSGDDINKFLWMVRIAEGEHPKDIRESDYFTPQGEFRVDKAGSPTLLNCLMYKMSYYRFGEMQLDFRTPPGFDRTRNAEIGNKDIKFKHLEEAFTSEHWLVRIYKVKAPDNRETLDHKPRVTNIFPKQKYLSKKTTKRKRGYIKNKLVFKKGKKISKKTV
(A) not satisfied
